Biological target: LK35.2-hPD-L1 cells / PE-labeled PD-1-Ig (Homo sapiens, UniProt Q9NZQ7)
Construct: expressed in transfected cells; host or cells: LK35.2 mouse B cell line
Sequence (Q9NZQ7 19-290): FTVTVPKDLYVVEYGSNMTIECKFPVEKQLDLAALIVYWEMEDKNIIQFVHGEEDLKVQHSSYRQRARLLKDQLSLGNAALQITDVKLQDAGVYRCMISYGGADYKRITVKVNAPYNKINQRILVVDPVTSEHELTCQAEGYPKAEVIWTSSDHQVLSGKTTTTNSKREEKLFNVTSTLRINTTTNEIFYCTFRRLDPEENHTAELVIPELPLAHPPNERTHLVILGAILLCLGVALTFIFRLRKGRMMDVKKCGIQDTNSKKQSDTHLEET
Experiment: LK35.2-hPD-L1 cell binding high-content screening assay
Format: cell-based
Conditions: cluster symbol; cell line of CBA not given (LK35.2-hPD-L1 or 293T-hPD-L1); read-out: CBA IC50 cluster
Experimental: LK35.2-hPD-L1 Cell Binding High-Content Screening Assay. Phycoerythrin (PE) was covalently linked to the Ig epitope tag of human PD-1-Ig and fluorescently-labeled PD-1-Ig was used for binding studies with a mouse B cell line (LK35.2) stably over-expressing human PD-L1 (LK35.2-hPD-L1). Briefly, 3×10^3 LK35.2-hPD-L1 cells were seeded into 384 well plates in 20 ul of RPMI supplemented with 10% fetal calf serum and cultured overnight. […]
pIC50: −log10 of the molar value. Positions of bridges follow the written chain, without caps; N, C: chain ends. Non-standard residues stand in square brackets, D forms with d. Residues, ends and D or L forms follow the SMILES beside them. Phe(3-Cl) = N[C@@H](Cc1cccc(Cl)c1)C(=O)O; Phe(2-Cl) = N[C@@H](Cc1ccccc1Cl)C(=O)O; Phe(2-Me) = Cc1ccccc1C[C@H](N)C(=O)O; Bta = N[C@@H](Cc1csc2ccccc12)C(=O)O; Hyp = O=C(O)[C@@H]1C[C@@H](O)CN1; NMeF = CN[C@@H](Cc1ccccc1)C(=O)O; Chg = N[C@H](C(=O)O)C1CCCCC1; NMeNle = CCCC[C@H](NC)C(=O)O; NMeA = CN[C@@H](C)C(=O)O; Dap = NC[C@H](N)C(=O)O; Sar = CNCC(=O)O
Recorded pIC50 by entry

Some solved entries appear below for comparison.
compound	pIC50
CCCC[C@H]1C(=O)N(C)CC(=O)N[C@@H](CC(=O)O)C(=O)N[C@@H](C2CCCCC2)C(=O)N(C)[C@@H](Cc2ccccc2)C(=O)N[C@@H](Cc2ccc(O)cc2)C(=O)N(C)CC(=O)N[C@@H](Cc2c[nH]c3ccccc23)C(=O)N[C@@H](Cc2ccc(O)cc2)C(=O)N[C@@H](CC(C)C)C(=O)N[C@H](C(=O)NCC(N)=O)CSCC(=O)N[C@@H](Cc2ccccc2)C(=O)N(C)[C@@H](Cc2ccccc2)C(=O)N1C [Example 3158] ({CH2CO}-F[NMeF][NMeNle][Sar]D[Chg][NMeF]Y[Sar]WYLCG-NH2; thioether N-13)	7.14 to 8.32
CCCC[C@H]1C(=O)N(C)CC(=O)N[C@@H](CC(=O)O)C(=O)N[C@@H](C(C)C)C(=O)N(C)[C@@H](Cc2ccccc2)C(=O)N[C@@H](Cc2ccc(O)cc2)C(=O)N2CCC[C@@H]2C(=O)N[C@@H](Cc2c[nH]c3ccccc23)C(=O)N[C@@H](Cc2ccc(O)cc2)C(=O)N[C@@H](CC(C)C)C(=O)N[C@H](C(N)=O)CSCC(=O)N[C@@H](Cc2cccc(Cl)c2)C(=O)N(C)[C@@H](Cc2ccccc2)C(=O)N1C [Example 3166] ({CH2CO}-[Phe(3-Cl)][NMeF][NMeNle][Sar]DV[NMeF]Y[dP]WYLC-NH2; thioether N-13)	8.33 to 9.80
CCCC[C@H]1C(=O)N(C)CC(=O)N[C@@H](CC(=O)O)C(=O)N[C@@H](C(C)C)C(=O)N(C)[C@@H](Cc2ccccc2)C(=O)N[C@@H](Cc2ccc(O)cc2)C(=O)N(C)CC(=O)N[C@@H](Cc2c[nH]c3ccccc23)C(=O)N[C@@H](Cc2ccc(O)cc2)C(=O)N[C@@H](CC(C)C)C(=O)N[C@H](C(=O)NCC(N)=O)CSCC(=O)N[C@@H](Cc2ccccc2Cl)C(=O)N(C)[C@@H](Cc2ccccc2)C(=O)N1C [Example 3104] ({CH2CO}-[Phe(2-Cl)][NMeF][NMeNle][Sar]DV[NMeF]Y[Sar]WYLCG-NH2; thioether N-13)	< 7.13
CCCC[C@H]1C(=O)N(C)[C@@H](CCCC)C(=O)N[C@@H](C)C(=O)N[C@H](C(=O)NCC(N)=O)CSCC(=O)N[C@@H](Cc2ccc(O)cc2)C(=O)N(C)[C@@H](C)C(=O)N[C@@H](CCC(=O)O)C(=O)N2CCC[C@H]2C(=O)N[C@@H](Cc2cnc[nH]2)C(=O)N[C@@H](CC(C)C)C(=O)N2C[C@H](O)C[C@H]2C(=O)N[C@@H](Cc2c[nH]c3ccccc23)C(=O)N[C@@H](CO)C(=O)N[C@@H](Cc2c[nH]c3ccccc23)C(=O)N1C	7.14 to 8.32
CCCC[C@H]1C(=O)N(C)[C@@H](CCCC)C(=O)N[C@@H](CCCNC(=N)N)C(=O)N[C@H](C(=O)NCC(N)=O)CSCC(=O)N[C@@H](Cc2ccccc2C)C(=O)N(C)[C@@H](C)C(=O)N[C@@H](CC(N)=O)C(=O)N2CCC[C@H]2C(=O)N[C@@H](Cc2cnc[nH]2)C(=O)N[C@@H](CC(C)C)C(=O)N(C)CC(=O)N[C@@H](Cc2c[nH]c3ccccc23)C(=O)N[C@@H](CO)C(=O)N[C@@H](Cc2c[nH]c3ccccc23)C(=O)N1C [Example 1106] ({CH2CO}-[Phe(2-Me)][NMeA]NPHL[Sar]WSW[NMeNle][NMeNle]RCG-NH2; thioether N-14)	7.14 to 8.32
CCCC[C@H]1C(=O)N(C)[C@@H](CCCC)C(=O)N[C@@H](CCCNC(=N)N)C(=O)N[C@H](C(=O)NCC(N)=O)CSCC(=O)N[C@@H](Cc2ccccc2)C(=O)N(C)[C@@H](C)C(=O)N[C@@H](CC(N)=O)C(=O)N2CCC[C@H]2C(=O)N[C@@H](Cc2cnc[nH]2)C(=O)N[C@@H](CC(C)C)C(=O)N(C)CC(=O)N[C@@H](Cc2c[nH]c3ccccc23)C(=O)N[C@@H](Cc2cnc[nH]2)C(=O)N[C@@H](Cc2c[nH]c3ccccc23)C(=O)N1C [Example 1068] ({CH2CO}-F[NMeA]NPHL[Sar]WHW[NMeNle][NMeNle]RCG-NH2; thioether N-14)	< 7.13

Consider the compound CCCC[C@H]1C(=O)N(C)CC(=O)N[C@@H](CC(=O)O)C(=O)N[C@@H](C(C)C)C(=O)N(C)[C@@H](Cc2ccccc2)C(=O)N[C@@H](Cc2ccc(O)cc2)C(=O)N(C)CC(=O)N[C@@H](Cc2c[nH]c3ccccc23)C(=O)N[C@@H](Cc2ccc(O)cc2)C(=O)N[C@@H](CC(C)C)C(=O)N[C@H](C(=O)NCC(N)=O)CSCC(=O)N[C@@H](Cc2cccc(Cl)c2)C(=O)N(C)[C@@H](Cc2ccccc2)C(=O)N1C [Example 3086] ({CH2CO}-[Phe(3-Cl)][NMeF][NMeNle][Sar]DV[NMeF]Y[Sar]WYLCG-NH2; thioether N-13) . State its measured pIC50. 8.33 to 9.80

Consider the compound CCCC[C@H]1C(=O)N(C)[C@@H](CCCC)C(=O)N[C@@H](CCCNC(=N)N)C(=O)N[C@H](C(=O)NCC(N)=O)CSCC(=O)N[C@@H](Cc2ccc(O)cc2)C(=O)N(C)[C@@H](C)C(=O)N[C@@H](CC(N)=O)C(=O)N2CCC[C@H]2C(=O)N[C@@H](CN)C(=O)N[C@@H](CC(C)C)C(=O)N2C[C@H](O)C[C@H]2C(=O)N[C@@H](Cc2c[nH]c3ccccc23)C(=O)N[C@@H](CO)C(=O)N[C@@H](Cc2csc3ccccc23)C(=O)N1C [Example 1118] ({CH2CO}-Y[NMeA]NP[Dap]L[Hyp]WS[Bta][NMeNle][NMeNle]RCG-NH2; thioether N-14) . State its measured pIC50. 8.33 to 9.80
